Hey, just so you know, these numbers are from paper PMC4639919.

EXPERIMENTAL SYSTEM: α6β2* nicotinic acetylcholine receptor (α6 subunit) (Rattus norvegicus, UniProt P12390+P43143)
Sequence (P43143 31-493 limits assumed): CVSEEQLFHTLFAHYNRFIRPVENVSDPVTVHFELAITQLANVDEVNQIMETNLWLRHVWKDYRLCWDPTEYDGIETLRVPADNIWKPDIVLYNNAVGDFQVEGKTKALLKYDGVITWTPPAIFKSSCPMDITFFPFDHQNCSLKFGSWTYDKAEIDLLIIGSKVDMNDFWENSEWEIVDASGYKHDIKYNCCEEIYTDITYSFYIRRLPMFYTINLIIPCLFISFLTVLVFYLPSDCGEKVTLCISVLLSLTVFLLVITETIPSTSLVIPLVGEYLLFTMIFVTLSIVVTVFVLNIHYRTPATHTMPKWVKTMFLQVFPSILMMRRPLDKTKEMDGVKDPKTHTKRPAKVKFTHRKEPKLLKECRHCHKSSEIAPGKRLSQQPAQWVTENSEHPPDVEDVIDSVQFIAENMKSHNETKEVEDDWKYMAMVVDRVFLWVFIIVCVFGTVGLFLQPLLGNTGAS
Sequence (P12390 25-500 limits assumed): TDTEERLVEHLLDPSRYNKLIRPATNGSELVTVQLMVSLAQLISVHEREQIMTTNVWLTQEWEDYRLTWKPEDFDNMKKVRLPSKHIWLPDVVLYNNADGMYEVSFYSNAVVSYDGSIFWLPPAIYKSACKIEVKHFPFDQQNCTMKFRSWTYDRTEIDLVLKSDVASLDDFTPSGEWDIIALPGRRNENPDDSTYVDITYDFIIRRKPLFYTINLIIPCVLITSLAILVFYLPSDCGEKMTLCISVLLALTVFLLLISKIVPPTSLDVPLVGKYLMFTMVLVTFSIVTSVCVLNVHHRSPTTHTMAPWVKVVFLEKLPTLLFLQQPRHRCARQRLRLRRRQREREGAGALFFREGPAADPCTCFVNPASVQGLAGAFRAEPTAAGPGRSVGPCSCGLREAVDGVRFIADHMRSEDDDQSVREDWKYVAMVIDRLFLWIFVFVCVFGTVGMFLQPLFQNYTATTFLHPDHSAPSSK
ASSAY ENDPOINT: IC50 (µM)
Answers are plain numbers, in µM.

Please look at this compound and report its IC50: CC1=CCCN(CCCCCCCCCCN2CCC=C(C)C2)C1 [r-bPiDI]
0.0375
